target_under_test: AKT2 (Homo sapiens (Human), UniProt P31751)
Sequence (P31751 whole entry): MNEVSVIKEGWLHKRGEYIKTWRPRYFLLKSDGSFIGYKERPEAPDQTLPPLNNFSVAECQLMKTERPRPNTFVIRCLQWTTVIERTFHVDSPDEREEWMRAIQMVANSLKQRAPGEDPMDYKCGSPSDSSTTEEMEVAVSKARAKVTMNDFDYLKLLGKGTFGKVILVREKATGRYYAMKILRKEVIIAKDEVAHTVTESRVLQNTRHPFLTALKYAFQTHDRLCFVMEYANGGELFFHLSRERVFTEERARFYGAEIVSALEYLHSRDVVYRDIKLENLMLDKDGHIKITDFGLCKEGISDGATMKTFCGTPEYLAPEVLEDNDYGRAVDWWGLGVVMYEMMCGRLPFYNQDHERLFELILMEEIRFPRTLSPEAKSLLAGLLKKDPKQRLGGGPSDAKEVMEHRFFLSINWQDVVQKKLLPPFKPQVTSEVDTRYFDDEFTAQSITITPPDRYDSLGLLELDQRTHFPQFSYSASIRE
assay_info: Live cell target engagement (NanoBRET) in HEK293 cells
Type: cell-based
condition_context: HEK293, 2 hours at 37° C.
Below: a set of entries, each annotated with reported IC50.

COc1ccc2nc(-c3cccnc3N)n(-c3ccc(CNC(=O)Cc4ccc(C=O)c(O)c4)cc3)c2n1    > 500 nM
CC(C)c1ccc2nc(-c3cccnc3N)n(-c3ccc(CNC(=O)Cc4ccc(C=O)c(O)c4)cc3)c2n1    > 500 nM
Nc1ncccc1-c1nc2ccc(-c3cccnc3)nc2n1-c1ccc(CNC(=O)C2(c3ccc(C=O)c(O)c3)CC2)cc1    > 500 nM

With those in mind, consider the next compound.
Query: IC50; subject: Nc1ncccc1-c1nc2ccc(-c3ccccc3)nc2n1-c1ccc(N2CC(NCc3ccc(C=O)c(O)c3)C2)cc1
> 500 nM

====

target_under_test: AKT1 E17K (Homo sapiens (Human), UniProt P31749, E17K)
Sequence (P31749 whole entry E17K): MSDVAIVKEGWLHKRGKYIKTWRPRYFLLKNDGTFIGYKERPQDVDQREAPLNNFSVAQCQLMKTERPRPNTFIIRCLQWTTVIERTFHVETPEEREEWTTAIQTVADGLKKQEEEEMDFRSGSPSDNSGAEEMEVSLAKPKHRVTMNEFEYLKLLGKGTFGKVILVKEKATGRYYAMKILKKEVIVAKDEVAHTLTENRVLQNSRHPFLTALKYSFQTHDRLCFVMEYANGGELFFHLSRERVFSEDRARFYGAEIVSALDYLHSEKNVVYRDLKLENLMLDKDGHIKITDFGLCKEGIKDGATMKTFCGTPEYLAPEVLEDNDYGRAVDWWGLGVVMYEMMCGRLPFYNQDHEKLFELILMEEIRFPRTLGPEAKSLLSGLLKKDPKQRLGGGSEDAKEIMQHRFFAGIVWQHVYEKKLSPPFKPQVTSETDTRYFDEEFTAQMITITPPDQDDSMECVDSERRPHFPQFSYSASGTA
assay_info: Live cell target engagement (NanoBRET) in HEK293 cells
Assay type: cell-based
condition_context: HEK293, 2 hours at 37° C.
pIC50: −log10 of the molar value.
parameter: pIC50

Use the examples below as a reference point.
Nc1ncccc1-c1nc2ccc(-c3ccccc3)nc2n1-c1ccc(CNC(=O)C2(c3ccc(C=O)c(O)c3F)CC2)cc1    6.30 to 7.00
Nc1ncccc1-c1nc2ccc(-c3ccccc3)nc2n1-c1ccc(CNC(=O)Cc2ccc(C=O)c(O)n2)cc1    6.30 to 7.00
CC(C)c1ccc2nc(-c3cccnc3N)n(-c3ccc(CNC(=O)Cc4ccc(C=O)c(O)c4)cc3)c2n1    > 7.00
Nc1ncccc1-c1nc2ccc(-c3ccccc3)nc2n1-c1ccc(C(=O)NCc2ccc(O)c(C=O)c2)cc1    > 7.00
Nc1ncccc1-c1nc2ccc(-n3cccn3)nc2n1-c1ccc(C2(NC(=O)Cc3ccc(C=O)c(O)c3F)CC2)cc1    > 7.00

What measured pIC50 goes with Nc1ncccc1-c1nc2cccnc2n1-c1ccc(CNC(=O)c2ccc(C=O)c(O)c2)cc1 ?
< 6.30

Thanks! And CC(C)(C(=O)NCc1ccc(-n2c(-c3cccnc3N)nc3ccc(-c4ccccc4)nc32)cc1)c1ccc(C=O)c(O)c1 ?
> 7.00

====

target_under_test: AKT1 E17K (Homo sapiens (Human), UniProt P31749, E17K)
assay_info: Live cell target engagement (NanoBRET) in HEK293 cells
Type: cell-based
Below, each of the compounds is paired with its reported AKT1 E17K IC50: Selectivity vs AKT1 WT value.
Just the number, please, no unit attached.

Below are worked cases with known answers.
Nc1ncccc1-c1nc2ccc(-c3ccccc3)nc2n1-c1ccc(NC(=O)Cc2ccc(O)c(C=O)c2)cc1    1.3
Cn1cc(C(=O)Nc2cc(CC(=O)NCc3ccc(-n4c(-c5cccnc5N)nc5cccnc54)cc3)ccc2C=O)cn1    3.6
Nc1ncccc1-c1nc2ccc(-c3ccccc3)nc2n1-c1ccc(CNC(=O)c2cc(Br)c(O)c(C=O)c2)cc1    2.1

Which measured AKT1 E17K IC50: Selectivity vs AKT1 WT belongs to COc1c(CCNCc2ccc(-n3c(-c4cccnc4N)nc4ccc(-c5ccccc5)nc43)cc2)ccc(C=O)c1O , tested on AKT1 E17K (Homo sapiens (Human), UniProt P31749, E17K)?
1.6

Also Nc1ncccc1-c1nc2cccnc2n1-c1ccc(CNC(=O)C(F)(F)c2ccc(C=O)c(O)c2)cc1 ?
2.2

Record: CC(=O)Nc1cccc(-c2ccc3nc(-c4cccnc4N)n(-c4ccc(CNCCc5ccc(C=O)c(O)c5F)cc4)c3n2)c1
1.1

Okay, and Nc1ncccc1-c1nc2ccc(-c3ccccc3)nc2n1-c1ccc(C(=O)NCCc2ccc(C=O)c(O)c2)cn1 ?
1
